Assay: Lipid nanoparticle size by dynamic light scattering (Malvern Zetasizer Nano ZS)
Assay type: physicochemical
Conditions: LNP: cationic lipid/DSPC/cholesterol/PEG-lipid 50:10:38.5:1.5, hEPO mRNA; Table 3
Description: Briefly, a cationic lipid provided herein, DSPC, cholesterol, and PEG-lipid were solubilized in ethanol at a molar ratio of 50:10:38.5:1.5, and mRNA were diluted in 10 to 50 mM citrate buffer, pH=4. […] Lipid nanoparticle size were determined by dynamic light scattering using a Malvern Zetasizer Nano ZS (Malvern UK) using a 173° backscatter detection mode. […]
I'd be grateful if you could share measured size nm for these entries.
The reply should contain only the number, in nm.

Could you share which size nm value was measured for CCCCCCCCC(CCCCCC)COC(=O)CCCCCN(CCCCCC(=O)OCC(CCCCCC)CCCCCCCC)CCN(CC)C1CCC(O)CC1 (stereo not drawn) ? 95.51

Would you kindly share the measured size nm for CCCCCCCCC(CCCCCC)CNC(=O)NCCCCN(CCCCNC(=O)NCC(CCCCCC)CCCCCCCC)CCN(CCO)C1CCC1 (stereo not drawn) ? 71.02

For the compound CCCCCCCCC(CCCCCC)COC(=O)CCCCCN(CCCCCC(=O)OCC(CCCCCC)CCCCCCCC)CCN(CCOC(C)=O)C1CCC1 (stereo not drawn) , what size nm is on record? 84.93

----------
Assay: Lipid nanoparticle size by dynamic light scattering (Malvern Zetasizer Nano ZS)
Type: physicochemical
Conditions: LNP: cationic lipid/DSPC/cholesterol/PEG-lipid 50:10:38.5:1.5, hEPO mRNA; Table 3
Method: Briefly, a cationic lipid provided herein, DSPC, cholesterol, and PEG-lipid were solubilized in ethanol at a molar ratio of 50:10:38.5:1.5, and mRNA were diluted in 10 to 50 mM citrate buffer, pH=4. […] Lipid nanoparticle size were determined by dynamic light scattering using a Malvern Zetasizer Nano ZS (Malvern UK) using a 173° backscatter detection mode. […]
For each entry below, report its size nm value.
Give the quantity in nm, number only.

Dear colleague, I am looking for the recorded size nm of the following molecule: CCCCCCCCC(CCCCCC)COC(=O)CCCCCN(CCCCCC(=O)OCC(CCCCCC)CCCCCCCC)CCN(C1CCCCC1)C1CCC(O)CC1 (stereo not drawn) 66.06

Which size nm is listed for CCCCCCCCC(CCCCCC)COC(=O)CCCCCN(CCCCCC(=O)OCC(CCCCCC)CCCCCCCC)CCN(CCO)C1CCOC1 (stereo not drawn) ? 72

What measured size nm goes with CCCCCCCCC(CCCCCC)COC(=O)CCCCCN(CCCCCC(=O)OCC(CCCCCC)CCCCCCCC)CCN(CCO)C1CC(O)C1 (stereo not drawn) ? 71.2

Please give the measured size nm for this molecule: CCCCCCCCC(CCCCCC)COC(=O)CCCCCC(CCCCCC(=O)OCC(CCCCCC)CCCCCCCC)CCCN(C)CCO (stereo not drawn) 71.85

I have this molecule here, CCCCCCCCC(CCCCCC)COC(=O)CCCCCN(CCCCCC(=O)OCC(CCCCCC)CCCCCCCC)C(=O)CN(CCO)C1CCC1 (stereo not drawn) , and I need its recorded size nm. 67.23

Report size nm for CCCCCCCCC(CCCCCCCC)COC(=O)CCCCCN(CCCCCC(=O)OCC(CCCCCCCC)CCCCCCCC)CCN(CCC)C1CCCC1O (stereo not drawn) please. 56.96

----------
Please go through the items and note down their Encapsulation Efficiency.
assay: Encapsulation efficiency of lipid nanoparticles (Quant-it Ribogreen RNA quantification assay); type: physicochemical; settings: LNP encapsulating hEPO mRNA; Table 3
Write it as a number; the unit % goes unstated.

Bench note: what Encapsulation Efficiency did CCCCCCCCC(CCCCCC)CNC(=O)CCCCCN(CCCCCC(=O)NCC(CCCCCC)CCCCCCCC)CCN(CCO)C1CCC1 (stereo not drawn) [Compound 107] show? 95.64

# query: Encapsulation Efficiency of entry CCCCCCCCC(CCCCCCCC)COC(=O)CCCCCN(CCCCCC(=O)OCC(CCCCCCCC)CCCCCCCC)CCN(CCC)C1CCCCC1O (stereo not drawn) 78.3

Returns the measured Encapsulation Efficiency for the input compound. Input: CCCCCCCCC(CCCCCC)CC(=O)NCCCCCN(CCCCCNC(=O)CC(CCCCCC)CCCCCCCC)CCN(CCO)C1CCCCC1 (stereo not drawn) 98.2

Which value of Encapsulation Efficiency has been reported for CCCCCCCCC(CCCCCC)CC(=O)NCCCCCN(CCCCCOC(=O)CC(CCCCCC)CCCCCCCC)CCN(CCO)C1CCCCCC1 (stereo not drawn) in the records? 88.00

Quick one: Encapsulation Efficiency for `CCCCCCCCOC(CCCCCN(CCCCCC(=O)NCC(CCCCCC)CCCCCC)CCN(CCO)C1CCC1)OCCCCCCCC` ? 93.5

# query: Encapsulation Efficiency of entry CCCCC/C=C\CCCC(=O)C(CC/C=C\CCCCC)C(CCC/C=C\CCCCC)OC(=O)CCCCCN(CCO)CCCCCC(=O)OCCC/C=C/CCCCC (stereo not drawn) 87.7

----------
assay: Lipid nanoparticle size by dynamic light scattering (Malvern Zetasizer Nano ZS); assay type: physicochemical; conditions: LNP: cationic lipid/DSPC/cholesterol/PEG-lipid 50:10:38.5:1.5, hEPO mRNA; Table 3
What polydispersity was measured for each of the following?
API doc: respond with a numeric literal and nothing else, no unit.

Entry CCCCCCCCC(CCCCCC)CC(=O)NCCCCCN(CCCCCOC(=O)CC(CCCCCC)CCCCCCCC)CCN(CCO)C1CC1 (stereo not shown) [Compound 117] : reported polydispersity = ? 0.157

Any idea what its polydispersity is? The compound is CCCCCCCCC(CCCCCCCC)CC(=O)NCCCCCN(CCCCCNC(=O)CC(CCCCCCCC)CCCCCCCC)CCN(CCO)C1CCCCCC1 [Compound 144] 0.035

Could you tell me which polydispersity is on file for CCCCCCCCCCCOC(=O)CCCCCN(CCCCCC(=O)OCC(CCCCCCCC)CCCCCCCC)CCN(CCO)C1CC1 [Compound 80] ? 0.06

Fill in the blank: the reported polydispersity of CCCCCCCCC(CCCCCC)COC(=O)CCCCCN(CCCCCC(=O)OCC(CCCCCC)CCCCCCCC)CCN(CCCCCCCCO)C1CCC1 (stereo not shown) [Compound 31] is ____. 0.076

Quick one: polydispersity for CCCCCCCCC(O)CN(CCN(CCCCCC(=O)OCC(CCCCCC)CCCCCCCC)CCCCCC(=O)OCC(CCCCCC)CCCCCCCC)C1CCC1 (stereo not shown) [Compound 34] ? 0.095

Look up polydispersity for this compound: CCCCCCCCC(CCCCCC)C(CCC)OC(=O)CCCCCN(CCCCCC(=O)OC(CCC)C(CCCCCC)CCCCCCCC)CCN(CCO)C1CCC1 (stereo not shown) [Compound 40] 0.081

Please report the recorded polydispersity for CCCCCCCCNC(=O)CCCCCN(CCCCCC(=O)NCCCCCCCC)CCN(CCO)C1CCCCC1 [Compound 123] . 0.285

----------
experiment: Lipid nanoparticle size by dynamic light scattering (Malvern Zetasizer Nano ZS); format: physicochemical; conditions: LNP: cationic lipid/DSPC/cholesterol/PEG-lipid 50:10:38.5:1.5, hEPO mRNA; Table 3
Would you mind telling me the reported size nm of each entry?
The answer is to be given in nm; state only the numeric part.

Need size nm, item CCCCCCCCC(CCCCCCCC)COC(=O)CCCCCN(CCCCCC(=O)OCC(CCCCCCCC)CCCCCCCC)CCN(C)C1CCC(O)CC1 (stereo not drawn) [Compound 73] 78.99

Which size nm is listed for CCCCCCCCC(CCCCCCCC)CNC(=O)CCCCCN(CCCCCC(=O)OCC(CCCCCCCC)CCCCCCCC)CCN(CCO)C1CCCCCC1 [Compound 139] ? 67.31

So what does the record say about size nm for CCCCCCCCC(CCCCCC)COC(=O)NCCCCN(CCCCNC(=O)OCC(CCCCCC)CCCCCCCC)CCN(CCO)C1CCC1 (stereo not drawn) [Compound 155] ? 64.39

May I ask what size nm has been recorded for CCCCCCCCC(CCCCCC)COC(=O)CCCCCN(CCCCCC(=O)OCC(CCCCCC)CCCCCCCC)CCN(C1CCCCC1)C1CC(O)C1 (stereo not drawn) [Compound 92] ? 66.94

Which size nm is reported for this compound? CCCCCCCCC(CCCCCCCC)CC(=O)NCCCCCN(CCCCCNC(=O)CC(CCCCCCCC)CCCCCCCC)CCN(CCO)C1CCCCCC1 [Compound 144] 64.08

Reported size nm for CCCCCCCCC(CCCCCC)CNC(=O)CCCCCN(CCCCCC(=O)NCC(CCCCCC)CCCCCCCC)CCN(CCO)C1CCC1 (stereo not drawn) [Compound 107] : what is it? 106.9

----------
assay: Lipid nanoparticle size by dynamic light scattering (Malvern Zetasizer Nano ZS); format: physicochemical; settings: LNP: cationic lipid/DSPC/cholesterol/PEG-lipid 50:10:38.5:1.5, hEPO mRNA; Table 3
Kindly return fulfilled if reported polydispersity is no lower than 0.06; return not fulfilled if it is lower.

Could you please find out whether CCCCCCCCC(CCCCCC)COC(=O)CCCCCC(CCCCCC(=O)OCC(CCCCCC)CCCCCCCC)CN(CCO)C1CCCCCCC1 (stereo not shown) has polydispersity that meets 0.06 or exceeds it? fulfilled

Is reported polydispersity greater than or equal to 0.06 here: `CCCCCCCCC(CCCCCCCC)CNC(=O)CCCCCN(CCCCCC(=O)NCC(CCCCCCCC)CCCCCCCC)CCN(CCO)C1CCCCC1` not fulfilled

Does the reported polydispersity for CCCCCCCCC(CCCCCC)CNC(=O)CCCCCN(CCCCCC(=O)NCC(CCCCCC)CCCCCCCC)CCN(CCO)C1CCCC1 (stereo not shown) fall at or above the 0.06 mark? not fulfilled

Check the entry CCCCCCCCC(CCCCCC)CNC(=O)CCCCCN(CCCCCC(=O)NCC(CCCCCC)CCCCCCCC)CCN(CCO)C1CCC1 (stereo not shown) [Compound 118] : does polydispersity equal or exceed 0.06? not fulfilled

Could you verify whether the entry `CCCCCCCCC(CCCCCCCC)CNC(=O)CCCCCN(CCCCCC(=O)OCC(CCCCCCCC)CCCCCCCC)CCN(CCO)C1CCCCC1` shows polydispersity of no less than 0.06? not fulfilled

Hi, just wondering whether CCCCCCCCC(CCCCCC)COC(=O)CCCCCN(CCCCCC(=O)OCC(CCCCCC)CCCCCCCC)CCN(CCO)C1CCC1 (stereo not shown) shows polydispersity of 0.06 or higher. fulfilled
